// values below are reported GI50
System: NCI-H23
Experiment: NCI tumour cell line growth inhibition, 48 h
Activity calls are given as the source filed them. No stated cut-off is given here; in the data, active = GI50 up to about 1.1 µM and inactive = higher.

GI50 of CCCCCCCCCCCCCC(=O)OCC1OC(=O)C(O)C1O (centres undefined) , assay on NCI-H23, is > 100 µM (inactive)

GI50 of CC1=CC(=O)CCC2(C)C1CC[C@@H]2OC=O (some centres undefined) , assay on NCI-H23, is > 100 µM (inactive)

GI50 of O=C1c2ccccc2C(=O)[C@@]23O[C@@]12C1(Oc2cccc4cccc(c24)O1)[C@@H]1O[C@@H]1[C@@H]3O , assay on NCI-H23, is 13.6 µM (inactive)

Okay, now this molecule:
GI50 of CC1OC(OC2C(OC(=O)[C@]34CCC(C)(C)CC3C3=CCC5[C@@]6(C)C[C@H](O)[C@H](OC7OC(CO)C(O)C(O)C7N)[C@@](C)(C(=O)O)C6CC[C@@]5(C)C3(C)CC4)OCC(O)C2O)C(O)C(O)C1OC1OCC(O)C(O)C1O (some centres undefined) , assay on NCI-H23, is > 100 µM (inactive)
